- experimental_target: T1, mouse CD36 (on HEK 293 cells) (mouse, UniProt Q08857 1-472)
- T1 construct: also called Murine CD36
- T1 sequence (Q08857 whole entry): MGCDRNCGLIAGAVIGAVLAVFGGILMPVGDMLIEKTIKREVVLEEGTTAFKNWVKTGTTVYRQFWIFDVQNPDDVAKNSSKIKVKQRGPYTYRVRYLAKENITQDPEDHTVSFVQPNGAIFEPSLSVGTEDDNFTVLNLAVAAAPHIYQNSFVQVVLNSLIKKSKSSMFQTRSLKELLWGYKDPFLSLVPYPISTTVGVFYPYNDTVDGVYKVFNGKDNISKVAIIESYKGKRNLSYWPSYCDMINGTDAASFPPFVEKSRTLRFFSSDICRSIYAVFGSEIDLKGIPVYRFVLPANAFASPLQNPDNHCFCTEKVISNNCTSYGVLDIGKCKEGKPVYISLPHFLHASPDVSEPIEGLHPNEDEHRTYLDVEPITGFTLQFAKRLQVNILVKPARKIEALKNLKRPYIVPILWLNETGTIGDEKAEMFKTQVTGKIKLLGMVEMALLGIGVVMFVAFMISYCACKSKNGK
- assay_explanation: FACS, HEK 293 cells transiently overexpressing CD36;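 note: antibody binding to transfected cells detected by flow cytometry with a fluorescent anti-human secondary antibody, EC50 from a four-parameter sigmoidal fit of mean fluorescence intensity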
Catalogue of binders with associated EC50
Report the value in nM with no unit label.

Here's what some known entries look like.
7G04 (antibody, human IgG1, V domains shown, Chimeric: mouse variable regions on human IgG1 LALA (L234A/L235A); also called 07G04; 007G04) VH: QVQMKESGAELVRPGASVKLSCKALGYTFTDYEIQWVKQTPVHGLEWIGGIHPGSSGIVYNQKFKGKATLTADKSSSTAYMELSSLTSEDSAVYYCTRGGGYDGAWFAYWGQGSLVTVSA VL: ETTVTQSPASLSMAIGEKVTIRCITSTDIDDDMNWYQQKPGEPPKLLISEGNTLRPGVPSRFSSSGYGTDFVFTIENMLSEDVADYYCLQSDNLPFTFGSGTKLEIK; 3.73
17G04 (antibody, human IgG1, V domains shown, Chimeric: mouse variable regions on human IgG1 LALA (L234A/L235A)) VH: EVQLQQSGPELVKPGASVKISCKTSGYTFTEYTMHWVKQSHGKSLEWIGGIYPYNGGTAYNQKFKNKATLTVDISSNTAYMALRSLASDDSAVYYCASDYFYGDGYPWFTYWGQGTLVTVSA VL: ETTVTQSPASLSVATGEKVTIRCITSTDIDDDMNWYQQRPGEPPNLLISEGNTLRPGVPSRFSSSGYGTDFVFTIENTLSEDVADYYCLQSDNLPFTFGSGTRLEIK; 9.31
30G04 (antibody, human IgG1, V domains shown, Chimeric: mouse variable regions on human IgG1 LALA (L234A/L235A); also called 030G04) VH: EVQLVESGGGVVQPGESLKLSCESNEYEFPSHDMSWVRKTPERRLELVAAINSDGAITYYPDTMERRFIISRDNTKKTLYLQMSSLKSEDTAMYYCARHGQTGTWFAYWGQGTLVTVSA VL: ETTVTQSPASLSMAIGEKVTIRCITSTDIDDDMNWYQQKPGEPPKLLISEGNTLRPGVPSRFSSSGYGTDFVFTIENMLSEDVADYYCLQSDNLPLTFGAGTKLELK; 0.96
20G04 (antibody, human IgG1, V domains shown, Chimeric: mouse variable regions on human IgG1 LALA (L234A/L235A)) VH: QIQLVQSGPELVKPGASVKISCETSGHTFTEYTMHWVKQSHGKSLEWIGGIYPNNGATKYNQKFKGKATLTVDKSSSTAYMELRSLTSEDSAVYYCARDRYDVWFAYWGQGTLVTVSA VL: ETTVTQSPASLSVATGEKVTIRCITSTDIDDDMNWYQQKPGEPPKLLISEGNTLRPGVPSRFSSGGYGTDFVFTVENMLSEDVADYYCLQSDNLPLTFGAGTKLELK; 18.2
35G04 (antibody, human IgG1, V domains shown, Chimeric: chicken variable regions on human IgG1 LALA (L234A/L235A); also called 035G04) VH: AVTLDESGGGLQTPGGALSLVCKASGFTFSNYGMGWMRQAPGKGLEFVAKIYKDGGYTGYGAAVDGRATISRDDGQSTVRLQLNDLRAEDTATYFCAKAADSGYLYITDSIDAWGHGTEVIVSS VL: ALTQPSSVSANPGETVKITCSGGSGSYGWFQQKSPGNAPVTVIYHNDQRPSDIPSRFSGSKSGSTATLTITEVQADDEAVYVCGGYDNDNDAGIFGAGTTLTVL; 2.25

Quick one: EC50 for 16G04 (antibody, human IgG1, V domains shown, Chimeric: mouse variable regions on human IgG1 LALA (L234A/L235A); also called 016G04) VH: EVQLQQSGPELVKPGASVKISCKTSGYTFTEYTMHWVKQSHGKSLEWIGGINPYNGGTAYNQKFKNKATLTVDISSNTAFMEFRSLTSEDSAVYYCASDYFYGDANPWFAYWGQGTLVTVSA VL: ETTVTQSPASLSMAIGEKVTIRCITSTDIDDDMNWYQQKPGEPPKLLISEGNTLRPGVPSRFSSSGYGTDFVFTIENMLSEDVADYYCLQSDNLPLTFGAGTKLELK ?
18.2

# lookup: EC50 of 14G04 (antibody, human IgG1, V domains shown, Chimeric: mouse variable regions on human IgG1 LALA (L234A/L235A); also called 014G04) VH: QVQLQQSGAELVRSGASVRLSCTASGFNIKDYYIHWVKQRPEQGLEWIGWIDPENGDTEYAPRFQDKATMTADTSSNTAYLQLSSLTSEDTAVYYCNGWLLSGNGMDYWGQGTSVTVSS VL: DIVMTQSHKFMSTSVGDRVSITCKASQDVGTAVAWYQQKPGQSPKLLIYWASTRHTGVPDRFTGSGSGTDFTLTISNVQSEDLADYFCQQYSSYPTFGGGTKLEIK
1.57

Would you kindly share the measured EC50 for 18G04 (antibody, human IgG1, V domains shown, Chimeric: mouse variable regions on human IgG1 LALA (L234A/L235A); also called 018G04) VH: EVQLQQSGPELVKPGASVKISCETSGHTFTEYTMHWVKQSHGKSLEWIGGIYPNNGATKYNQKFKGKATLTVDKSSSTAYMELRSLTSEDSAVYYCARDRYDVWFAYWGQGTLVTVSA VL: ETTVTQSPASLSMAIGEKVTIRCITSTDIDDDMNWYQQKPGEPPKLLISEGNTLRPGVPSRFSSSGYGTDFVFTIENLLSEDVADYYCLQSDNLPLTFGGGTKLEIK ?
14.7

Which value of EC50 has been reported for 26G04 (antibody, human IgG1, V domains shown, Chimeric: mouse variable regions on human IgG1 LALA (L234A/L235A)) VH: QVQMKESGAELMKPGASVKISCKATGYIFSNYWIEWLKERPGHGLEWIGDFLPGSSSANYNEKFKGKATFTADTSSNTAYMQLSSLTSEDSAVYYCVPFTVEVTDAMDYWGQGTSVTVSS VL: DIVLTQSHKFMSTSVGDRVSITCKASQDVSTAVAWYQQKPGQSPKLLIYSASYRYTGVPDRFTGSGSGTDFTFTISSVQAEDLAVYYCQQHYSTPRTFGGGTKLEIK in the records?
158

Requested field: EC50. Item: 6G04 (antibody, human IgG1, V domains shown, Chimeric: mouse variable regions on human IgG1 LALA (L234A/L235A); also called 06G04; 006G04) VH: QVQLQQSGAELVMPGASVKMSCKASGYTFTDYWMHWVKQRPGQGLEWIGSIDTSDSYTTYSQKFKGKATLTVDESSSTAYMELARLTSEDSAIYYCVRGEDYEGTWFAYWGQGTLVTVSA VL: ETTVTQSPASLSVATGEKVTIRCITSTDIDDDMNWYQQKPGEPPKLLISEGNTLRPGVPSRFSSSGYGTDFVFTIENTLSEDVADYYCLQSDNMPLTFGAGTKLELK
1.51
